Cited source: patent US12324447B2

tested on: Exiguobacterium undea (DSM14481); assay: Lysozyme activity turbidity assay (optical density drop at 540 nm); format: biochemical, Exiguobacterium undae; conditions: assay pH 6 (Table 14)
parameter_measured: Lysozyme Activity against Exiguobacterium undae as measured by Optical Density Drop

molecule	reported_value
SEQ ID NO: 306: mature GH24 lysozyme from Ilyonectria rufa (protein, listed as Ilyonectria rufa, mat_peptide (1)..(240), mature GH24 lysozyme from Ilyonectria rufa) YKITGDNVNCRSGPGTSYSVKRSFKKGTDVTLSCQTTGENVLGTSIWDKTSYGCYVSDYYVKTGSSGFVVKKCGTCGAPKSNAATVNLISDFEGFRANIYKDAAGYPTVGYGHLCSNSRCTDVPYSIPLSKANGKNLLATDMTKFEKCITAMVSSSVTLNKNQYGALVSWAFNMGCGATKTSTLIKRLNQGQNVNTVLSTELPKWVYAGGKKLNGLVRRRNAEIALAKKKTTEKALPNKC	++++
